# assayDetails: chemical genetic growth profiling, strain panel (AID 1159580);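 further: tested at 20 µM; growth read once vehicle control cultures reached saturation at 30 °C; 1 = growth at the plate median or of vehicle wells; lower values mean less growth of the strain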
# experimentalConditions: S. cerevisiae deletion strains, growth OD, locus YNL233W, strain BNI4, active compounds read low
Hit rate of the full screen: of about 5,500 compounds, about 2,000 (36%) were called active. About 18% were inconclusive and are not listed. This is one part of the list.
property: normalized growth

| compound | property | numericValue |
| --- | --- | --- |
| CC1=C(/C=C/C(C)=C/C=C/C(C)=C/C=C/C=C(C)/C=C/C=C(C)/C=C/C23OC2(C)CC(O)CC3(C)C)C(C)(C)CC(O)C1 (stereo not drawn) | normalized growth | 1.02 |
| CN1CCCN=C1COC(=O)C(O)(c1ccccc1)C1CCCCC1 (stereo not drawn) | normalized growth | 0.998 |
| CC(C)(O)[C@@H]1[C@H]2OC(=O)[C@@H]1[C@]1(O)C[C@H]3O[C@]34C(=O)O[C@H]2[C@]14C | normalized growth | 0.996 |

====

# assayDetails: chemical genetic growth profiling, strain panel (AID 1159580)
# experimentalConditions: S. cerevisiae deletion strains, growth OD, locus YKL085W, strain MDH1 (second series)
In all, about 5,500 compounds went through this assay and about 2,000 (36%) were called active. Another 18% or so got no clear call; they are omitted. No stated cut-off is given here; in the data, active means normalized growth mostly below about 0.91 (no sharp cut-off); inconclusive means no clear call, values can overlap the other calls; inactive means mostly above about 0.92. Some of the results follow.
Possible outcomes: TRUE (active), FALSE (inactive)

| compound | cat |
| --- | --- |
| OCCN1C[C@@H](O)[C@@H](O)C(O)C1CO (stereo not given in full) | FALSE |
| CC(N)CCCC(C)(C)O (stereo not given) | FALSE |
| C=Cc1c2[nH]c(c1C)C=c1[nH]c(c(C)c1C=C)=CC1N=C(C=c3[nH]c(c(C)c3CCC(=O)O)=C2)C(CCC(=O)O)=C1C (stereo not given) | TRUE |
| CC(C(=O)O)c1cccc(C(=O)c2ccccc2)c1 (stereo not given) | FALSE |
| CC(C(=O)O)c1cccc(Oc2ccccc2)c1 (stereo not given) | TRUE |
| C[C@H]1CC2C([C@@H](O)C[C@@]3(C)C2CC[C@]3(O)C(=O)CO)[C@@]2(C)C=CC(=O)C=C12 (stereo not given in full) | FALSE |
| CS(=O)(=O)c1ccc(C2=C(c3ccccc3)C(=O)OC2)cc1 | FALSE |
| CC1=C(C(C)O)C2=NC1C=c1[nH]c(c(C)c1C(C)O)=Cc1[nH]c(c(CCC(=O)O)c1C)C=c1[nH]c(c(C)c1CCC(=O)O)=C2 (stereo not given) | FALSE |
| CNC(C)[C@H](O)c1ccccc1 (stereo not given in full) | FALSE |
| CC1CC2C3CC(F)C4=CC(=O)C=CC4(C)C3(F)C(O)CC2(C)C1(O)C(=O)CO (stereo not given) | FALSE |
| O=C(O)C1(O)C[C@@H](O)C(O)[C@H](O)C1 (stereo not given in full) | FALSE |
| CCN(CC)CCCC(C)Nc1c2ccc(Cl)cc2nc2ccc(OC)cc12 (stereo not given) | TRUE |
| CC(NCCc1ccc(O)cc1)C(O)c1ccc(O)cc1 (stereo not given) | FALSE |
| COCCc1ccc(OCC(O)CNC(C)C)cc1 (stereo not given) | FALSE |
| ClC1=C(Cl)C2(Cl)C3C(Cl)C=CC3C1(Cl)C2(Cl)Cl (stereo not given) | FALSE |

====

# assayDetails: chemical genetic growth profiling, strain panel (AID 1159580);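 further: tested at 20 µM; growth read once vehicle control cultures reached saturation at 30 °C; 1 = growth at the plate median or of vehicle wells; lower values mean less growth of the strain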
# experimentalConditions: S. cerevisiae deletion strains, growth OD, locus YGR078C, strain PAC10, active compounds read low
The whole screen tested about 5,500 compounds, of which about 2,000 (36%) were called active. Another 18% or so got no clear call; they are omitted. This is one part of the list.

| compound | normalized growth |
| --- | --- |
| CN(C)c1ccc(C(=O)NN)cc1 | 1.01 |
| c1cncc(C2CCCCN2)c1 (stereo unspecified) | 1.01 |
| COc1cc(NC(C)CCCN)c2ncccc2c1 (stereo unspecified) | 1.02 |
| CNC(=O)[C@H]1O[C@@H](n2cnc3c(N)ncnc32)C(O)[C@H]1O (stereo partly specified) | 1 |
| ClC1=C(Cl)C2(Cl)C3C(Cl)C=CC3C1(Cl)C2(Cl)Cl (stereo unspecified) | 0.993 |
| ClC1=C(Cl)C2(Cl)C3C4C=CC(C4)C3C1(Cl)C2(Cl)Cl (stereo unspecified) | 1.01 |
| CC[C@H]1OC(=O)[C@H](C)[C@@H](O[C@H]2C[C@@](C)(OC)[C@@H](O)[C@H](C)O2)[C@H](C)[C@@H](O[C@@H]2O[C@H](C)C[C@H](N(C)C)[C@H]2O)[C@](C)(O)C[C@@H](C)CN(C)[C@H](C)[C@@H](O)[C@]1(C)O | 1.02 |
| CNc1cc(NS(=O)(=O)c2ccc(N)cc2)nc(NC)n1 | 0.994 |
| COc1ccc(OC)c(S(=O)(=O)Nc2ccc(C#N)cc2)c1 | 1.02 |
| Cc1ccc(OS(=O)(=O)c2ccc(C#N)cc2)c(Br)c1 | 0.976 |
| N[C@@H](C(=O)O)c1ccccc1 | 0.998 |

====

# assayDetails: chemical genetic growth profiling, strain panel (AID 1159580);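 further: tested at 20 µM; growth read once vehicle control cultures reached saturation at 30 °C; 1 = growth at the plate median or of vehicle wells; lower values mean less growth of the strain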
# experimentalConditions: S. cerevisiae deletion strains, growth OD, locus YMR307W, strain GAS1, active compounds read low
The campaign covered roughly 5,500 compounds. About 2,000 (36%) were called active. Not shown: some 18% with an inconclusive outcome. Some of the results follow.
Lab note: anything with normalized growth below 1 is marked yes; values at 1 or higher are marked no.

| molecule | cat |
| --- | --- |
| CC1CC2C3CCC4=CC(=O)C=C[C@]4(C)[C@@]3(F)[C@@H](O)C[C@]2(C)[C@@]1(O)C(=O)CO (stereo partly specified) | no |
| C=C1C([C@]2(C)C(CC(=O)OC)[C@@](C)(COC(C)=O)OC(=O)C[C@@H]2OC(C)=O)[C@@H](OC=O)[C@H](OC(=O)C(OC(C)=O)C(C)CC)[C@@]2(C)[C@H](c3ccoc3)CC(=O)C12O (stereo partly specified) | no |
| CCC(C)C(OC(C)=O)C(=O)OC1C(O)C2C3(C)C=CC(=O)C(C)(C)C3CC(OC(=O)C(O)C(C)C)C2(C)C23OC2CC(c2ccoc2)C13C (stereo unspecified) | yes |
| CNC(C)[C@H](O)c1ccccc1 (stereo partly specified) | no |
| CCCCCCCCNC(C)C(O)c1ccc(SC(C)C)cc1 (stereo unspecified) | yes |

====

# assayDetails: chemical genetic growth profiling, strain panel (AID 1159580);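 further: tested at 20 µM; growth read once vehicle control cultures reached saturation at 30 °C; 1 = growth at the plate median or of vehicle wells; lower values mean less growth of the strain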
# experimentalConditions: S. cerevisiae deletion strains, growth OD, locus YER111C, strain swi4
About 2,000 (36%) of roughly 5,500 compounds were called active. Inconclusive results (about 18%) are left out. Rule as the data show it: active = normalized growth mostly below about 0.91 (no sharp cut-off); inconclusive = no clear call, values can overlap the other calls; inactive = mostly above about 0.92. The list shows a part of the results.
Possible outcomes: T for active, F for inactive

| compound | cat |
| --- | --- |
| COc1ccc2cc([C@H](C)CO)ccc2c1 | F |
| CC(=O)NC1SCCC1=O (centres undefined) | F |
| C=C1C2CC[C@H]3[C@]4(C)C[C@H](OC5OC(CO)C(OS(=O)(=O)O)C(OS(=O)(=O)O)C5OC(=O)CC(C)C)C[C@@H](C(=O)O)[C@H]4CC[C@]3(C2)[C@H]1O (some centres undefined) | F |
| CC(C)(O)[C@@H]1[C@H]2OC(=O)[C@@H]1[C@]1(O)C[C@H]3O[C@]34C(=O)O[C@H]2[C@]14C | F |
| C[C@]12CCC(=O)C=C1CCC1C2CC[C@@]2(C)C1CC[C@@H]2O (some centres undefined) | F |
| CC1=C(/C=C/C(C)=C/C=C/C(C)=C/C=C/C=C(C)/C=C/C=C(C)/C=C/C(=O)[C@]2(C)C[C@@H](O)CC2(C)C)C(C)(C)C[C@H](O)C1 | F |
| COc1cc(NC(C)CCCN)c2ncccc2c1 (centres undefined) | F |
| COc1cc2c(cc1OC)[C@@H]1C(=O)c3ccc(O)c(CC=C(C)C)c3O[C@@H]1CO2 | F |
| CC1CC2C3CCC4=CC(=O)C=C[C@]4(C)[C@@]3(F)[C@@H](O)C[C@]2(C)[C@@]1(O)C(=O)CO (some centres undefined) | F |
| CC(C(=O)O)c1ccc(-c2ccccc2)c(F)c1 (centres undefined) | F |
| CC(=O)[C@H]1CCC2C3CCC4=CC(=O)CC[C@]4(C)C3CC[C@@]21C (some centres undefined) | F |
| NC(=O)C(c1ccccc1)(c1ccccc1)C1CCN(CCc2ccc3c(c2)CCO3)C1 (centres undefined) | F |
| COc1cc(O)c(C(=O)/C=C/c2ccc(O)c(OC)c2)c(OC)c1 | F |
| O=C(O)C1(O)C[C@@H](O)C(O)[C@H](O)C1 (some centres undefined) | F |
| CC(Oc1ccccc1)C(=O)N[C@@H]1C(=O)N2[C@@H]1SC(C)(C)[C@@H]2C(=O)O (some centres undefined) | F |
| NC(=O)c1ccc[n+]([C@@H]2O[C@H](COP(=O)([O-])OP(=O)(O)OC[C@H]3O[C@@H](n4cnc5c(N)ncnc54)[C@H](O)[C@@H]3O)[C@@H](O)[C@H]2O)c1 | F |
| COc1cc(/C=C/C(=O)/C=C(O)/C=C/c2ccc(O)c(OC)c2)ccc1O | T |
| CCCCCCCCCCCCCCCC[N+](C)(C)C | T |
| COc1ccc2c(c1)O[C@@H]1COc3cc(OC)c(OC)cc3[C@@H]1C2=O | T |
| COc1cc2c(cc1OC)[C@@H]1C(=O)c3ccc(OC)c(CC=C(C)C)c3O[C@@H]1CO2 | F |
| CC(=O)OCC(=O)[C@H]1CCC2C3CCC4=CC(=O)CC[C@]4(C)C3CC[C@@]21C (some centres undefined) | F |
| COCCc1ccc(OCC(O)CNC(C)C)cc1 (centres undefined) | F |
| CO[C@H]1[C@H](O)[C@H](O[C@H]2CC[C@]3(C)C4CC[C@]5(C)C(C6=CC(=O)OC6)CC[C@]5(O)C4CC[C@@H]3C2)O[C@@H](C)[C@@H]1O (some centres undefined) | F |
| CCOC(=O)C(Cc1ccc(O)cc1)NC(C)=O (centres undefined) | F |
